assay: NCI Yeast Anticancer Drug Screen. Data for the rad50 strain (AID 155);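 note: 0% = growth of vehicle-only cultures of the same strain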; details: S. cerevisiae rad50 strain growth inhibition; at 50.0 µM (retest, dose inferred, filed as 5.0)
The panel holds about 79,000 compounds, 15% with a hit somewhere; the sample as a whole holds those more often. The source made the active and inactive calls. Cut-off read from the data, not from the text of the source: active = growth inhibition above about 70%; inactive = the rest.
// one of class 1 = active, class 0 = inactive, no free text

Example cases with answers are listed next.
Compound | Label
CCCCCOCC(=O)OC | class 0
COC1OC(CI)C(OC(c2ccccc2)(c2ccccc2)c2ccccc2)C(OC(c2ccccc2)(c2ccccc2)c2ccccc2)C1OC(c1ccccc1)(c1ccccc1)c1ccccc1 (configuration not stated) | class 0
COc1ccc(/C=C/C(=N/NC(=O)c2ccccc2)C(C)CN(C)C)cc1 (configuration not stated) | class 0
CCCC(=O)NCCNC(=O)CCC | class 0
OCCCCCCCCCl | class 0

input: I would be grateful if you could indicate the recorded call for CCCCCCCCCCCCCCCC1=NCCN1C .
output: class 1

input: I would be grateful if you could indicate the recorded call for CCC(c1ccc(Cl)cc1)C(C#N)c1ccccc1 (configuration not stated) .
output: class 0

input: I would be grateful if you could indicate the recorded call for CN(C)c1ccc(C(c2ccc(N(C)C)cc2)c2ccc3c(c2)OCO3)cc1 .
output: class 0

input: I would be grateful if you could indicate the recorded call for OCCC(CCN1CCOCC1)(c1ccccc1)C1(O)CCCC1 (configuration not stated) .
output: class 0

input: I would be grateful if you could indicate the recorded call for COc1ccc(/C(=N\Nc2ccc(Br)cc2)c2ccccc2/C(=N/Nc2ccc(Br)cc2)c2ccccc2OC)cc1 .
output: class 0

input: I would be grateful if you could indicate the recorded call for COC1OC2COC(c3ccccc3)OC2C(NC(=S)SCc2ccccc2)C1O (configuration not stated) .
output: class 1

input: I would be grateful if you could indicate the recorded call for CCC12C=CCN3CC[C@@]4(c5cc([C@@]6(C(=O)OC)C[C@@H]7CN(CCc8c6[nH]c6ccccc86)C[C@](O)(CC)C7)c(OC)cc5N(C)[C@H]4[C@@](O)(C(=O)OC)[C@@H]1OC(=O)CCCCCCCCCCCN1C(=O)C=CC1=O)[C@H]32 (some centres not stated) .
output: class 1

input: I would be grateful if you could indicate the recorded call for OC(c1ccccc1)(c1ccccc1)C(F)(Cl)Cl .
output: class 0

input: I would be grateful if you could indicate the recorded call for O=C(O)C1C(C(=O)Nc2ccc3c(c2)Cc2ccccc2-3)C2(Cl)C(Cl)=C(Cl)C1(Cl)C2(Cl)Cl (configuration not stated) .
output: class 1

input: I would be grateful if you could indicate the recorded call for O=C(NC1CCN(Cc2ccccc2)CC1)c1cccc(I)c1 .
output: class 0

input: I would be grateful if you could indicate the recorded call for CN(C)C(=S)SSSSC(=S)N(C)C .
output: class 1

input: I would be grateful if you could indicate the recorded call for CCCCCN(CCCCC)CC(C)(C)C(O)c1ccc(OC)c2ccccc12 (configuration not stated) .
output: class 0

input: I would be grateful if you could indicate the recorded call for CCCC(=O)Oc1ccc(-c2ccccc2)cc1Br .
output: class 1

input: I would be grateful if you could indicate the recorded call for CC(=O)OCC1OC(Sc2ccc3ccccc3c2)C(OC(C)=O)C(OC(C)=O)C1OC(C)=O (configuration not stated) .
output: class 0

input: I would be grateful if you could indicate the recorded call for CN(C)C=C1C(Cl)=C(C=O)CC(C=O)=C1Cl .
output: class 0

input: I would be grateful if you could indicate the recorded call for COP(=O)(OC)/C(=C/c1cn(C(c2ccccc2)(c2ccccc2)c2ccccc2)cn1)NC=O .
output: class 0

input: I would be grateful if you could indicate the recorded call for CC(C)(C)OC(=O)CSC#N .
output: class 1

----------
Quick reference: growth inhibition of the listed items.
experiment: NCI Yeast Anticancer Drug Screen. Data for the cln2 rad14 strain (AID 165);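 note: 0% = growth equal to vehicle treated cultures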; details: S. cerevisiae cln2 rad14 strain, at 5.0 µM (retest, dose inferred, filed as 0.5), stronger effect = higher value
Compounds without any hit were thinned out: in the full panel of roughly 79,000, 15% have a hit.
Kindly provide the numeric value in % only, without the unit symbol.

Compound | Reported Value
COC(=O)CSc1n[nH]c(-c2ccc(O)c([N+](=O)[O-])c2)n1 | 40
C1CCN(c2nc(N3CCOCC3)c3[nH]c(N4CCCCC4)nc3n2)CC1 | 8
Cc1cc(Nc2ccc(N=Nc3ccc(O)c4ncccc34)cc2)nc(C)n1 | -41
O=C(CSc1nccc(=O)[nH]1)c1ccccc1 | -5
O=S1(=O)c2ccccc2C(Br)C1Br (stereo not given) | 22
CC(C)c1cccc2sc(NC(=O)C(=O)C(C#N)c3cccc4ccccc34)nc12 (stereo not given) | 3

input: Which value of growth inhibition has been reported for CN(C)c1cc[c]([Sn]([c]2ccc(N(C)C)cc2)([c]2ccc(N(C)C)cc2)[c]2ccc(N(C)C)cc2)cc1 in the records?
output: -12

input: Which value of growth inhibition has been reported for O=c1[nH]n(CCc2ccccn2)c(=O)c(Cl)c1Cl in the records?
output: 2

input: Which value of growth inhibition has been reported for CCN1/C(=C/C=C/C=C\C=C\c2sc3ccc4ccccc4c3[n+]2CC)Sc2ccc3ccccc3c21 in the records?
output: 48

input: Which value of growth inhibition has been reported for OCCC(CCN1CCOCC1)(c1ccccc1)C1(O)CCCC1 (stereo not given) in the records?
output: 2

----------
assay: NCI Yeast Anticancer Drug Screen. Data for the bub3 strain (AID 167); settings: S. cerevisiae bub3 mutant strain, at 50.0 µM
Compounds without any hit were thinned out: in the full panel of roughly 79,000, 15% have a hit. Calls of active or inactive are those of the source. Rule as the data show it: active = growth inhibition above about 70%; inactive = the rest.
// one of active, inactive, no free text

Compound | Label
CCCCCCCCCCCCCCCBr | active
Cc1[nH]c2ccccc2c1/C=C1/CCCCCCC1=O | active
NNc1c(Cl)cc(Cl)cc1Cl | active

input: I would be grateful if you could indicate the recorded call for CC(=O)O[C@@H]1CC(C)C2CC2C2=C(C(O)OC2O)[C@@H]1C(C)CCC=C(C)C (stereo partly specified) .
output: active

input: I would be grateful if you could indicate the recorded call for O=C(O)c1cc2ccc3cccc4ccc(c1)c2c34 .
output: active

input: I would be grateful if you could indicate the recorded call for O=C1Oc2ccccc2C(=O)/C1=C/N1C(=O)/C(=C/c2ccccc2)NC1=S .
output: inactive

----------
Assay: NCI Yeast Anticancer Drug Screen. Data for the rad50 strain (AID 155);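 note: 0% = growth of vehicle-only cultures of the same strain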
Conditions: S. cerevisiae rad50 strain growth inhibition; at 5.0 µM (retest, dose inferred, filed as 0.5); stronger effect = higher value
Method: Growth inhibition of yeast strains with defined genetic alterations is measured as a screen for potential anti-cancer activity. Selected strains with alterations in DNA damage repair or cell cycle control were exposed to compounds and growth inhibition was measured relative to vehicle treated controls. The strain used in this assay is rad50
This is part of a sample that, as a whole, favours compounds with a hit. Of some 79,000 tested, about 15% had one in any assay.
Quick reference: growth inhibition of the listed items.
Kindly provide the numeric value in % only, without the unit symbol.

Below are worked cases with known answers.
Compound | Unit Symbol | Reported Value
CC(C)=CCC(OC(=O)CC(C)C)C1=CC(=O)c2c(O)ccc(O)c2C1=O (stereo not drawn) | % | -1
COC1C(N)C(OC2C(Oc3cccc4c(O)c5c(=O)oc6ccc(C)c7c(=O)oc(c34)c5c67)OC(C)C(O)C2(C)O)OC(C)C1O (stereo not drawn) | % | 12
Cc1cc(Oc2nc(Cl)nc(C(Cl)(Cl)Cl)c2Cl)cc(C)c1N(C)C (tested in a mixture with another compound) | % | -5
[N-]=[N+]=NCC(O)c1ccc2c(c1)[nH]c1ccccc12 (stereo not drawn) | % | -11
OC(c1ccccc1)(c1ccccc1)C(F)(Cl)Cl | % | 1

input: Which value of growth inhibition has been reported for CC1(C)CC(=O)C2=C(C1)OC1=C(CC(C)(C)CC1=O)C2c1ccccc1[N+](=O)[O-] (stereo not drawn) in the records?
output: 22

input: Which value of growth inhibition has been reported for CC/C(=C(/CC)c1ccc(O)cc1)c1ccc([O-])cc1.CC/C(=C(/CC)c1ccc(O)cc1)c1ccc([O-])cc1.O=C([CH-]C(=O)c1ccccc1)c1ccccc1.O=C([CH-]C(=O)c1ccccc1)c1ccccc1.[Ti+4] in the records?
output: 64

input: Which value of growth inhibition has been reported for NC(=O)C12OC3CC(CC(C3)O1)O2 in the records?
output: -25

----------
assay: NCI Yeast Anticancer Drug Screen. Data for the rad50 strain (AID 155);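 note: 0% = growth of vehicle-only cultures of the same strain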; conditions: S. cerevisiae rad50 strain growth inhibition; at 50.0 µM (retest, dose inferred, filed as 5.0)
Compounds without any hit were thinned out: in the full panel of roughly 79,000, 15% have a hit. The source made the active and inactive calls. No stated cut-off is given here; in the data, active means growth inhibition above about 70%; inactive means the rest.
// one of active, inactive, no free text

Example cases with answers are listed next.
Compound | Label
CCc1cc(C)cc(NC(=O)OC2CCCCC2C)c1 (stereo unspecified) | inactive
COc1ccc2c3c(c4cc(OC)c(OC)cc4c2c1)CN1CCC[C@H]1[C@@H]3O | active
Oc1c(Cl)cccc1-c1ccccc1 | inactive
COc1ccc(N2CCN(CC(O)COc3cc4c(c5c3CCCC5)CCCC4)CC2)cc1 (stereo unspecified) | active
O=C1CCCC1C(=O)OC1CCCC1 (stereo unspecified) | inactive
CCSC(=S)NC(=O)c1ccccc1 | inactive
COc1ccc(C)c2nc3ccccc3nc12 | active
CCCCOc1ccc(CN2CCOC2=O)cc1 | inactive

input: I would be grateful if you could indicate the recorded call for COc1ccc(C)cc1NC(=O)ON=C1CCCCC1 .
output: active

input: I would be grateful if you could indicate the recorded call for NC(=O)C(=CNc1nc(-c2ccc(Br)cc2)cs1)C(N)=O .
output: active

input: I would be grateful if you could indicate the recorded call for Oc1ccc2c(ccc3ccccc32)c1 .
output: active

input: I would be grateful if you could indicate the recorded call for O/N=C1/C(=C/c2ccc3c(c2)OCO3)CCCC1C(NO)c1ccc2c(c1)OCO2 (stereo unspecified) .
output: inactive

input: I would be grateful if you could indicate the recorded call for CC12CCC(=O)C=C1CCC1C2CCC2(C)C(c3cnc[nH]3)CCC12 (stereo unspecified) .
output: active

input: I would be grateful if you could indicate the recorded call for BrCc1ccccc1C[P+](c1ccccc1)(c1ccccc1)c1ccccc1 .
output: active

input: I would be grateful if you could indicate the recorded call for Oc1ccc(/C=N/NC(=S)NC2CC3CC2C2C=CCC32)c(O)c1 (stereo unspecified) .
output: active

input: I would be grateful if you could indicate the recorded call for O=C1/C(=C/c2ccccc2)CN(C(=O)CCN2CCCC2)C/C1=C\c1ccccc1 .
output: active

input: I would be grateful if you could indicate the recorded call for CCn1cnc2[nH]cc(C#N)c2c1=O .
output: inactive
